Value source: patent US9029399B2

- TESTED_ON: Human CYP17 enzyme (Cytochrome P450, 17-20 lyase) (Homo sapiens (Human), UniProt P05093)
- Sequence (P05093 whole entry): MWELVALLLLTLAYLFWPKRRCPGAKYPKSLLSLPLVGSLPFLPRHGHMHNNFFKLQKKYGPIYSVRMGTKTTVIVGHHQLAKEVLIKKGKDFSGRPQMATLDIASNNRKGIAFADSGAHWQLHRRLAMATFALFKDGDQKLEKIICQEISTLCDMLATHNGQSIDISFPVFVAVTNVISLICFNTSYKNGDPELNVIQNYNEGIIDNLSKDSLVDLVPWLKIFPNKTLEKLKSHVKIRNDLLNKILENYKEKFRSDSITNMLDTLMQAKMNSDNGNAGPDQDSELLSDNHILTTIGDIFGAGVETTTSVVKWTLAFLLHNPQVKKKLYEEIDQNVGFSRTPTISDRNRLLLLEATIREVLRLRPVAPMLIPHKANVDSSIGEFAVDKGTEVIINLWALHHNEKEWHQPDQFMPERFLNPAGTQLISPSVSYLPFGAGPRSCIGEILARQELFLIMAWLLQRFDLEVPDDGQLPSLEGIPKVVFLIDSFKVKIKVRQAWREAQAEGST
- PROCEDURE_SUMMARY: CYP17 lyase assay, recombinant human CYP17 enzyme, 17-α-hydroxy pregnenolone [21-3H] substrate
- CONDITION_SUMMARY: recombinant human CYP17, first value of Human/Rat cell; read-out: Lyase IC 50 Human
Field: pIC50. Provide a value for each of the compounds that follow.
Note: pIC50 values are expressed as the negative base-10 logarithm of concentration in M.

[ask] I am curious: what pIC50 value has been reported for O=C1N(c2cc(Cl)nc(C(F)(F)F)c2)CCN1c1cnccc1C1CC1 [Example 37A] ?
[reply] 8.30

[ask] I am curious: what pIC50 value has been reported for O=C1N(c2cc(Cl)nc(C(F)(F)F)n2)CCN1c1cnccc1C1CC1 [Example 45A] ?
[reply] 8.00

[ask] I am curious: what pIC50 value has been reported for O=C1N(c2ccnc(C3CC3)c2)CCN1c1cnccc1C1CC1 [Example 39A] ?
[reply] 7.92

[ask] I am curious: what pIC50 value has been reported for O=C1N(c2cc3ccsc3cc2F)CCN1c1cnccc1C1CC1 [Example 28A] ?
[reply] 6.26

[ask] I am curious: what pIC50 value has been reported for O=C1N(c2cc(C3CC3)ncn2)CCN1c1cnccc1C1CC1 [Example 38A] ?
[reply] 7.32

[ask] I am curious: what pIC50 value has been reported for COc1cc(N2C(=O)N(c3cnccc3C3CC3)[C@@H]3C[C@@H]32)ccn1 [Example 31A-II] ?
[reply] 7.92

[ask] I am curious: what pIC50 value has been reported for Cc1csc2cc(N3CCN(c4cnccc4C4CC4)C3=O)ccc12 [Example 18A] ?
[reply] 7.12

[ask] I am curious: what pIC50 value has been reported for O=C1N(c2ccc3c(c2)OC(F)(F)O3)CCN1c1cnccc1C1CC1 [Example 17A] ?
[reply] 7.24

[ask] I am curious: what pIC50 value has been reported for O=C1N(c2ccc3cc(F)sc3c2)CCN1c1cnccc1C1CC1 [Example 25A] ?
[reply] 7.52

[ask] I am curious: what pIC50 value has been reported for O=C1N(c2ccnc(C(F)(F)F)c2)[C@@H]2C[C@@H]2N1c1cnccc1C1CC1 [Example 32A-I] ?
[reply] 6.74

[ask] I am curious: what pIC50 value has been reported for O=C1N(c2ccc3sc(Cl)cc3c2)CCN1c1cnccc1C1CC1 [Example 20A] ?
[reply] 6.97

[ask] I am curious: what pIC50 value has been reported for O=C1N(c2ccnc(C(F)(F)F)c2)CCN1c1cnccc1C1CC1 ?
[reply] 8.05

[ask] I am curious: what pIC50 value has been reported for O=C1N(c2ccc3sccc3c2)CCN1c1cnccc1C1CC1 ?
[reply] 7.89

[ask] I am curious: what pIC50 value has been reported for O=C1N(c2ccnc(Cl)c2)CCN1c1cnccc1C1(O)CCC1 [Example 33A] ?
[reply] 7.35

[ask] I am curious: what pIC50 value has been reported for O=C1N(c2cc(C(F)(F)F)nc(C(F)(F)F)c2)CCN1c1cnccc1C1CC1 [Example 49A] ?
[reply] 8.22

[ask] I am curious: what pIC50 value has been reported for O=C1N(c2ccnc(Cl)c2)[C@@H]2C[C@@H]2N1c1cnccc1C1CC1 [Example 30A-I] ?
[reply] 6.79

[ask] I am curious: what pIC50 value has been reported for O=C1N(c2cc(Cl)nc(Cl)c2)CCN1c1cnccc1C1CC1 [Example 46A] ?
[reply] 8.72

[ask] I am curious: what pIC50 value has been reported for O=C1N(c2ccc3c(C(F)(F)F)csc3c2)CCN1c1cnccc1C1CC1 [Example 23A] ?
[reply] 5.92

---

Field: pIC50. Provide a value for each of the compounds that follow.
- TESTED_ON: Human CYP17 enzyme (Cytochrome P450, 17-20 lyase) (Homo sapiens (Human))
- PROCEDURE_SUMMARY: CYP17 lyase assay, recombinant human CYP17 enzyme, 17-α-hydroxy pregnenolone [21-3H] substrate
- CONDITION_SUMMARY: recombinant human CYP17, first value of Human/Rat cell; read-out: Lyase IC 50 Human
Note: pIC50 values are expressed as the negative base-10 logarithm of concentration in M.

[ask] I am curious: what pIC50 value has been reported for Cc1coc2ccc(N3CCN(c4cnccc4C4CC4)C3=O)cc12 [Example 19A] ?
[reply] 8.57

[ask] I am curious: what pIC50 value has been reported for O=C1N(c2ccc3c(c2)CCC3)CCN1c1cnccc1C1CC1 [Example 21A] ?
[reply] 7.77

[ask] I am curious: what pIC50 value has been reported for Cc1cc(N2CCN(c3cnccc3C3CC3)C2=O)ncn1 [Example 41A] ?
[reply] 7.15

[ask] I am curious: what pIC50 value has been reported for O=C1N(c2cccc(C(F)(F)F)c2)CCN1c1cnccc1C1(O)CC1 [Example 36A] ?
[reply] 7.57

[ask] I am curious: what pIC50 value has been reported for Cc1nccc(N2CCN(c3cnccc3C3CC3)C2=O)n1 [Example 44A] ?
[reply] 6.40

[ask] I am curious: what pIC50 value has been reported for Cc1nc(Cl)cc(N2CCN(c3cnccc3C3CC3)C2=O)n1 ?
[reply] 7.39

[ask] I am curious: what pIC50 value has been reported for COc1cc(N2C(=O)N(c3cnccc3C3CC3)[C@H]3C[C@H]32)ccn1 [Example 31A-1] ?
[reply] 6.77

[ask] I am curious: what pIC50 value has been reported for COc1cc(N2CCN(c3cnccc3C3CC3)C2=O)ncn1 [Example 40A] ?
[reply] 7.08

[ask] I am curious: what pIC50 value has been reported for O=C1N(c2ccnc(Cl)c2)CCN1c1cnccc1C1CCCC1 [Example 34A] ?
[reply] 7.89

[ask] I am curious: what pIC50 value has been reported for Cc1csc2ccc(N3CCN(c4cnccc4C4CC4)C3=O)cc12 [Example 15A] ?
[reply] 8.17

[ask] I am curious: what pIC50 value has been reported for O=C1N(c2ccnc(C(F)(F)F)n2)CCN1c1cnccc1C1CC1 [Example 12A] ?
[reply] 7.00

[ask] I am curious: what pIC50 value has been reported for O=C1N(c2ccnc(C3CC3)n2)CCN1c1cnccc1C1CC1 [Example 43A] ?
[reply] 7.44

[ask] I am curious: what pIC50 value has been reported for O=C1N(c2ccnc(Cl)c2)CCN1c1cnccc1C1(O)CCCC1 [Example 35A] ?
[reply] 6.47

---

Field: IC50. Provide a value for each of the compounds that follow.
- TESTED_ON: Human CYP17 enzyme (Cytochrome P450, 17-20 lyase) (Homo sapiens (Human), UniProt P05093)
- PROCEDURE_SUMMARY: CYP17 lyase assay, recombinant human CYP17 enzyme, 17-α-hydroxy pregnenolone [21-3H] substrate
- CONDITION_SUMMARY: recombinant human CYP17, first value of Human/Rat cell; read-out: Lyase IC 50 Human

[ask] I am curious: what IC50 value has been reported for O=C1N(c2cc(Cl)nc(C3CC3)c2)CCN1c1cnccc1C1CC1 [Example 47A] ?
[reply] 5.2 nM

[ask] I am curious: what IC50 value has been reported for O=C1N(c2ccc3ccccc3c2)CCN1c1cnccc1C1CC1 [Example 3A] ?
[reply] 26 nM

[ask] I am curious: what IC50 value has been reported for Cc1c(F)sc2ccc(N3CCN(c4cnccc4C4CC4)C3=O)cc12 [Example 24A] ?
[reply] 19 nM

[ask] I am curious: what IC50 value has been reported for O=C1N(c2ccnc(Cl)c2)CCN1c1cnccc1C1CC1 [Example 1A] ?
[reply] 8 nM

[ask] I am curious: what IC50 value has been reported for O=C1N(c2cccc(C(F)(F)F)c2)CCN1c1cnccc1C1CC1 [Example 5A] ?
[reply] 6 nM

[ask] I am curious: what IC50 value has been reported for O=C1N(c2cnccc2C2CC2)[C@@H]2C[C@@H]2N1c1ccnc(C(F)(F)F)c1 [Example 32A-II] ?
[reply] 6.9 nM

[ask] I am curious: what IC50 value has been reported for COc1cc(N2CCN(c3cnccc3C3CC3)C2=O)ccn1 [Example 9A] ?
[reply] 42 nM

[ask] I am curious: what IC50 value has been reported for Cc1cc(N2CCN(c3cnccc3C3CC3)C2=O)ncc1F [Example 42A] ?
[reply] 22 nM

[ask] I am curious: what IC50 value has been reported for O=C1N(c2ccc3ccsc3c2)CCN1c1cnccc1C1CC1 [Example 16A] ?
[reply] 7 nM

[ask] I am curious: what IC50 value has been reported for O=C1N(c2cc(C(F)(F)F)ccn2)CCN1c1cnccc1C1CC1 [Example 8A] ?
[reply] 22 nM

[ask] I am curious: what IC50 value has been reported for O=C1N(c2ccc3sc(F)cc3c2)CCN1c1cnccc1C1CC1 [Example 14A] ?
[reply] 26 nM

[ask] I am curious: what IC50 value has been reported for O=C1N(c2cc3ccccc3s2)CCN1c1cnccc1C1CC1 [Example 6A] ?
[reply] 13 nM

[ask] I am curious: what IC50 value has been reported for O=C1N(c2ccc3scc(C(F)(F)F)c3c2)CCN1c1cnccc1C1CC1 [Example 13A] ?
[reply] 11 nM

[ask] I am curious: what IC50 value has been reported for O=C1N(c2cc(F)c3ccsc3c2)CCN1c1cnccc1C1CC1 [Example 26A] ?
[reply] 6 nM

[ask] I am curious: what IC50 value has been reported for O=C1N(c2cc(Cl)ncn2)CCN1c1cnccc1C1CC1 [Example 10A] ?
[reply] 121 nM

[ask] I am curious: what IC50 value has been reported for O=C1N(c2cnccc2C2CC2)[C@@H]2C[C@@H]2N1c1ccnc(Cl)c1 [Example 30A-II] ?
[reply] 6 nM

[ask] I am curious: what IC50 value has been reported for O=C1N(c2cc3sccc3cc2F)CCN1c1cnccc1C1CC1 [Example 27A] ?
[reply] 461 nM

[ask] I am curious: what IC50 value has been reported for O=C1N(c2cc(C3CC3)nc(C(F)(F)F)c2)CCN1c1cnccc1C1CC1 [Example 48A] ?
[reply] 4.75 nM

[ask] I am curious: what IC50 value has been reported for O=C1N(c2cc3cc(F)ccc3s2)CCN1c1cnccc1C1CC1 [Example 22A] ?
[reply] 7 nM
